The reported numbers originate from patent EP0745595A1.

A collection of compounds and their measured ORYSAT herbicidal rating (rice tolerance)
System: ORYZA SATIVA, L. TEBONNET
protocolSummary: Rice tolerance to post-transplant applications under flooded paddy conditions, ORYSAT (Rice, Tebonnet);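 for ORYSAT herbicidal rating (rice tolerance): applied to flooded soil surface three days after transplanting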
Assay type: in vivo
testSettings: post-transplant rice, Rate 0.500 kg/ha, rated three to four weeks after treatment
parameter: ORYSAT herbicidal rating (rice tolerance)

| smilesData | assaySystem | value |
| --- | --- | --- |
| CCOC(=O)Cn1c(=O)n(CC(=O)OC)c(=O)n(-c2cc(Oc3c(F)cc(C(F)(F)F)cc3Cl)ccc2C#N)c1=O | ORYZA SATIVA, L. TEBONNET | 1.0 |
| CCOC(=O)Cn1c(=O)n(C)c(=O)n(-c2cc(Oc3c(F)cc(C(F)(F)F)cc3Cl)ccc2C#N)c1=O | ORYZA SATIVA, L. TEBONNET | 1.0 |
| COC(=O)Cn1c(=O)n(C)c(=O)n(-c2cc(Oc3c(F)cc(C(F)(F)F)cc3Cl)ccc2F)c1=O | ORYZA SATIVA, L. TEBONNET | 4.7 |
| COC(=O)Cn1c(=O)n(C)c(=O)n(-c2cc(Oc3ccc(C(F)(F)F)cc3Cl)ccc2[N+](=O)[O-])c1=O | ORYZA SATIVA, L. TEBONNET | 4.0 |
| CCOC(=O)Cn1c(=O)n(CC(=O)OC)c(=O)n(-c2cc(Oc3ccc(C(F)(F)F)cc3Cl)ccc2[N+](=O)[O-])c1=O | ORYZA SATIVA, L. TEBONNET | 1.0 |
| CCOC(=O)Cn1c(=O)[nH]c(=O)n(-c2cc(Oc3c(F)cc(C(F)(F)F)cc3Cl)ccc2C#N)c1=O | ORYZA SATIVA, L. TEBONNET | 1.0 |

---

A collection of compounds and their measured Herbicidal effect rating, CHEAL
Tested on: CHENOPODIUM ALBUM, L.
protocolSummary: Postemergence herbicidal evaluation, CHEAL (Lambsquarters, Common)
Format: in vivo
testSettings: 0.063 kg/ha
parameter: Herbicidal effect rating, CHEAL

| compound | assaySystem | parameter | value |
| --- | --- | --- | --- |
| Cn1c(=O)[nH]c(=O)n(-c2cc(Oc3c(F)cc(C(F)(F)F)cc3Cl)ccc2Br)c1=O [A, reference compound] | CHENOPODIUM ALBUM, L. | Herbicidal effect rating, CHEAL | 9.0 |
| Cn1c(=O)[nH]c(=O)n(-c2cc(Oc3c(F)cc(C(F)(F)F)cc3Cl)ccc2F)c1=O [C, reference compound] | CHENOPODIUM ALBUM, L. | Herbicidal effect rating, CHEAL | 4.0 |
| Cn1c(=O)[nH]c(=O)n(-c2cc(Oc3ccc(C(F)(F)F)cc3Cl)ccc2[N+](=O)[O-])c1=O [B, reference compound] | CHENOPODIUM ALBUM, L. | Herbicidal effect rating, CHEAL | 2.5 |

---

System: ORYZA SATIVA, L. TEBONNET
protocolSummary: Rice tolerance to post-transplant applications under flooded paddy conditions, ORYSAT (Rice, Tebonnet)
Assay type: in vivo
testSettings: 0.500 kg/ha, post-transplant rice, 3-4 weeks after treatment

| smilesData | assaySystem | Herbicidal effect rating, ORYSAT |
| --- | --- | --- |
| COC(=O)Cn1c(=O)n(C)c(=O)n(-c2cc(Oc3ccc(SC)cc3Cl)ccc2[N+](=O)[O-])c1=O | ORYZA SATIVA, L. TEBONNET | 0.0 |
| COC(=O)Cn1c(=O)n(C)c(=O)n(-c2cc(Oc3ccc(C(F)(F)F)cc3Cl)ccc2Cl)c1=O | ORYZA SATIVA, L. TEBONNET | 5.3 |
| COC(=O)Cn1c(=O)n(C)c(=O)n(-c2cc(Oc3c(F)cc(C(F)(F)F)cc3Cl)ccc2[N+](=O)[O-])c1=O | ORYZA SATIVA, L. TEBONNET | 6.0 |
| Cn1c(=O)n(CC(=O)O)c(=O)n(-c2cc(Oc3c(F)cc(C(F)(F)F)cc3Cl)ccc2[N+](=O)[O-])c1=O | ORYZA SATIVA, L. TEBONNET | 7.0 |
| COC(=O)Cn1c(=O)n(C)c(=O)n(-c2cc(Oc3ccc(F)c(F)c3F)ccc2[N+](=O)[O-])c1=O | ORYZA SATIVA, L. TEBONNET | 1.5 |
| Cn1c(=O)n(CC(N)=O)c(=O)n(-c2cccc(Oc3ccc(C(F)(F)F)cc3Cl)c2)c1=O | ORYZA SATIVA, L. TEBONNET | 0.0 |

---

System: ORYZA SATIVA, L. TEBONNET
protocolSummary: Rice tolerance to post-transplant applications under flooded paddy conditions, ORYSAT (Rice, Tebonnet)
Format: in vivo
testSettings: 0.125 kg/ha, post-transplant rice, 3-4 weeks after treatment

| smilesData | assaySystem | Herbicidal effect rating, ORYSAT |
| --- | --- | --- |
| C=CCn1c(=O)n(CC(=O)OCC)c(=O)n(-c2cc(Oc3ccc(C(F)(F)F)cc3Cl)ccc2[N+](=O)[O-])c1=O | ORYZA SATIVA, L. TEBONNET | 2.0 |
| COC(=O)Cn1c(=O)n(C)c(=O)n(-c2cc(Oc3c(Cl)cccc3Cl)ccc2[N+](=O)[O-])c1=O | ORYZA SATIVA, L. TEBONNET | 1.0 |
| COC(=O)Cn1c(=O)n(C)c(=O)n(-c2cc(Oc3cc(Cl)c(Cl)cc3Cl)ccc2[N+](=O)[O-])c1=O | ORYZA SATIVA, L. TEBONNET | 0.0 |
| COC(=O)Cn1c(=O)n(C)c(=O)n(-c2cc(Oc3ccc(Cl)c(C)c3Cl)ccc2[N+](=O)[O-])c1=O | ORYZA SATIVA, L. TEBONNET | 3.0 |
| Cn1c(=O)n(CC(=O)O)c(=O)n(-c2cc(Oc3c(F)cc(C(F)(F)F)cc3Cl)ccc2[N+](=O)[O-])c1=O | ORYZA SATIVA, L. TEBONNET | 4.5 |
| Cn1c(=O)n(CC(=O)OC(C)(C)C)c(=O)n(-c2cc(Oc3c(F)cc(C(F)(F)F)cc3Cl)ccc2F)c1=O | ORYZA SATIVA, L. TEBONNET | 0.0 |

---

System: IPOMOEA SPP.
protocolSummary: Postemergence herbicidal evaluation, IPOSS (Morningglory spp.);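 note: higher means more injury with 8 approaching complete kill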
Assay type: in vivo
testSettings: Rate 0.125 kg/ha
A collection of compounds and their measured IPOSS

| compound | IPOSS |
| --- | --- |
| COC(=O)Cn1c(=O)n(C)c(=O)n(-c2cc(Oc3ccc(C(F)(F)F)cc3Cl)ccc2Cl)c1=O [Compound 39] | 9.0 |
| Cn1c(=O)[nH]c(=O)n(-c2cc(Oc3ccc(C(F)(F)F)cc3Cl)ccc2Cl)c1=O [F, reference compound] | 5.0 |
| Cn1c(=O)[nH]c(=O)n(-c2cccc(Oc3ccc(C(F)(F)F)cc3Cl)c2)c1=O [E, reference compound] | 5.0 |
| COC(=O)Cn1c(=O)n(C)c(=O)n(-c2cc(Oc3c(F)cc(C(F)(F)F)cc3Cl)ccc2[N+](=O)[O-])c1=O [Compound 16] | 9.0 |

---

System: ECHINOCHLOA ORYZOIDES (ARD.)FRITSCH
protocolSummary: Preemergence weed control under flooded paddy conditions, ECHORC (Watergrass (Calif.))
Assay type: in vivo
testSettings: 0.500 kg/ha, preemergence, 3-4 weeks after treatment
parameter: Herbicidal effect rating, ECHORC

| compound | parameter | value |
| --- | --- | --- |
| COC(=O)Cn1c(=O)n(C)c(=O)n(-c2cc(Oc3ccc([N+](=O)[O-])cc3F)ccc2[N+](=O)[O-])c1=O [Compound 24] | Herbicidal effect rating, ECHORC | 0.0 |
| Cn1c(=O)n(CC(N)=O)c(=O)n(-c2cccc(Oc3ccc(C(F)(F)F)cc3Cl)c2)c1=O [Compound 46] | Herbicidal effect rating, ECHORC | 0.0 |
| COC(=O)Cn1c(=O)n(C)c(=O)n(-c2cc(Oc3ccc(Cl)cc3Cl)ccc2[N+](=O)[O-])c1=O [Compound 18] | Herbicidal effect rating, ECHORC | 9.0 |
| COC(=O)Cn1c(=O)n(C)c(=O)n(-c2cc(Oc3cc(Cl)cc(Cl)c3Cl)ccc2[N+](=O)[O-])c1=O [Compound 25] | Herbicidal effect rating, ECHORC | 0.0 |
| COC(=O)Cn1c(=O)n(C)c(=O)n(-c2cc(Oc3ccccn3)ccc2[N+](=O)[O-])c1=O [Compound 38] | Herbicidal effect rating, ECHORC | 0.0 |
| COC(=O)Cn1c(=O)n(C)c(=O)n(-c2cc(Oc3ccc(Cl)cc3Cl)ccc2Br)c1=O [Compound 43] | Herbicidal effect rating, ECHORC | 9.0 |
| COC(=O)Cn1c(=O)n(C)c(=O)n(-c2cc(Oc3cc(Cl)cc(Cl)c3)ccc2[N+](=O)[O-])c1=O [Compound 35] | Herbicidal effect rating, ECHORC | 0.0 |
| COC(=O)Cn1c(=O)n(C)c(=O)n(-c2cc(Oc3c(F)cc(C(F)(F)F)cc3Cl)ccc2[N+](=O)[O-])c1=O [Compound 16] | Herbicidal effect rating, ECHORC | 9.0 |
| COC(=O)Cn1c(=O)n(C)c(=O)n(-c2cc(Oc3ccc(SC)cc3Cl)ccc2[N+](=O)[O-])c1=O [Compound 34] | Herbicidal effect rating, ECHORC | 0.0 |
| COC(=O)Cn1c(=O)n(C)c(=O)n(-c2cc(Oc3ccc(C#N)cc3)ccc2[N+](=O)[O-])c1=O [Compound 32] | Herbicidal effect rating, ECHORC | 0.0 |
| Cn1c(=O)n(CC(=O)OC(C)(C)C)c(=O)n(-c2cc(Oc3c(F)cc(C(F)(F)F)cc3Cl)ccc2[N+](=O)[O-])c1=O [Compound 17] | Herbicidal effect rating, ECHORC | 9.0 |
| COC(=O)Cn1c(=O)[nH]c(=O)n(-c2cc(Oc3ccc(Cl)cc3Cl)ccc2[N+](=O)[O-])c1=O [Compound 14] | Herbicidal effect rating, ECHORC | 0.0 |
| COC(=O)Cn1c(=O)n(C)c(=O)n(-c2cc(Oc3cc(F)c(F)cc3F)ccc2[N+](=O)[O-])c1=O [Compound 30] | Herbicidal effect rating, ECHORC | 0.0 |
